These measurements were taken from ChEMBL document CHEMBL1154747.

For each record, write down the corresponding pIC50.
Tested on: NALM-6
Test: Cytotoxicity against human NALM6 cells after 48 hrs by MTT assay
Format: functional, cell-based
Conditions: NALM-6, 48 h
Answer as the number alone; pIC50 is minus log10 of concentration in mol/L.

Short answer on NALM-6 for C=C1C(=O)O[C@H](C)[C@@H]1c1ccc(Br)cc1 (relative stereo) , pIC50: 5.37

Short answer on NALM-6 for C=C1C(=O)O[C@@H](C)[C@@H]1c1ccc(C)cc1 (relative stereo) , pIC50: 5.36

Short answer on NALM-6 for C=C1C(=O)OC(C)CC1c1ccc(OC)cc1 (stereo not given) , pIC50: 5.24

Short answer on NALM-6 for C=C1C(=O)OC(C)CC1c1ccc(Br)cc1 (stereo not given) , pIC50: 5.35

Short answer on NALM-6 for C=C1C(=O)OC(C)CC1C1CCCCC1 (stereo not given) , pIC50: 4.80

Short answer on NALM-6 for C=C1C(=O)O[C@H](C)[C@@H]1c1ccc(C)cc1 (relative stereo) , pIC50: 5.22

Short answer on NALM-6 for C=C1C(=O)O[C@@H](C)[C@@H]1c1ccc2c(c1)OCO2 (relative stereo) , pIC50: 5.30

Short answer on NALM-6 for C=C1C(=O)O[C@@H](C)[C@@H]1c1ccc(Br)cc1 (relative stereo) , pIC50: 5.96

Short answer on NALM-6 for C=C1C(=O)O[C@H](C)[C@@H]1c1ccc2c(c1)OCO2 (relative stereo) , pIC50: 5.33

Short answer on NALM-6 for C=C1C(=O)OC(C)CC1c1ccccc1OC (stereo not given) , pIC50: 5.20
